protocol: Pharmacokinetic parameters following intravenous and oral administration in rats
Assay type: in vivo, male Wistar rats
conditionSummary: male, Wistar, rat, plasma, po, oral administration (p.o.), read-out: t½ (converted)
Counter-ions that a name gives are not always drawn.
testReadout: half-life (h)

Sample answers from the record:
molecule: O=C(O)c1cnn(-c2cccc(-c3cc(Cl)ccc3-c3ccc(N4CCN(CC5CC5)CC4)cc3)n2)c1C(F)(F)F [Comparative Example 174 (WO2012/058132), reference compound]
half-life, h: 3.6
//
molecule: CC(C)CN1CCN(c2ccc(-c3ccc(Cl)cc3N3CCC[C@@H](n4ncc(C(=O)O)c4C(F)F)C3)cc2)CC1 (single isomer, unassigned)
half-life, h: 3.96
//
molecule: O=C(O)c1cnn(C2CCCN(c3cc(Cl)ccc3-c3ccc(N4CCN(CC5CC5)CC4)cc3)C2)c1C(F)F (single isomer, unassigned) [Example 5, hydrochloride]
half-life, h: 3.76
//
molecule: CC(C)CN1CCN(c2ccc(-c3ccc(Cl)cc3N3CCCC(n4ncc(C(=O)O)c4C(F)F)C3)cc2)CC1 (single isomer, unassigned) [Example 1, hydrochloride]
half-life, h: 3.24
//
molecule: CCCN1CCN(c2ccc(-c3ccc(Cl)cc3N3CCCC(n4ncc(C(=O)O)c4C(F)F)C3)cc2)CC1 (single isomer, unassigned) [Example 4, hydrochloride]
half-life, h: 3.02

I: O=C(O)c1cnn(C2CCCN(c3cc(Cl)ccc3-c3ccc(N4CCN(CC5CC5)CC4)cc3)C2)c1C(F)(F)F (single isomer, unassigned) [Example 10, hydrochloride]
II: CC(C)CN1CCN(c2ccc(-c3ccc(Cl)cc3N3CCCC(n4ncc(C(=O)O)c4C(F)(F)F)C3)cc2)CC1 (single isomer, unassigned) [Example 9, hydrochloride]
Exercise: Name the one with the greater half-life value, either I or II as given. # answer = label of selected item
Key: II
